Give combination Emax for every item shown.
test system: NCI-H1666 (Lung Adenocarcinoma); experiment: combination Emax (second highest fraction inhibited in the dose matrix, 72 h); higher = more inhibition; extreme values may be limits of the assay
Give bare numbers.

C[C@@H](Nc1cc(F)cc(F)c1)c1cc(C(=O)N(C)C)cc2c(=O)cc(N3CCOCC3)oc12 [AZD8186] + C1CN(CCC1(C(=O)N[C@@H](CCO)C2=CC=C(C=C2)Cl)N)C3=NC=NC4=C3C=CN4 [AZD5363] (first compound max 10 µM, 7x7, partner max 10 µM)    0.406

--- query ---
I would be grateful if you could share the reported combination Emax for CC1(C)CCC(CN2CCN(c3ccc(C(=O)NS(=O)(=O)c4ccc(NCC5CCOCC5)c([N+](=O)[O-])c4)c(Oc4cnc5[nH]ccc5c4)c3)CC2)=C(c2ccc(Cl)cc2)C1 [Venetoclax] + COc1cc(Nc2ncc3c(n2)-c2ccc(Cl)cc2C(c2c(F)cccc2OC)=NC3)ccc1C(=O)O [Alisertib] (first compound max 1 µM, 7x7, partner max 10 µM) .
0.501

###

test system: NCI-H1581 (Non-Small Cell Lung Carcinoma); assay: Bliss excess, mean over the matrix (fraction); higher = more synergy;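 note: after 72 h of two-drug dosing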
MEASUREMENT TYPE: Bliss excess
Answers are plain numbers.

NC1(C(=O)N[C@@H](CCO)c2ccc(Cl)cc2)CCN(c2ncnc3[nH]ccc23)CC1 [Capivasertib] + CC(C)n1c(=O)n(C)c2cnc3cc(F)c(-c4ccc(OCCCN5CCCCC5)nc4)cc3c21 [AZD1390] (first compound max 10 µM, 7x7, partner max 0.3 µM)    -0.0784
COc1nnc2ccc(N3CCC(c4ccc(OCCN5CCN(C)C(=O)[C@H]5C)cc4)CC3)nn12 [AZD5153] + CCN(CCO)CCCOc1ccc2c(Nc3cc(CC(=O)Nc4cccc(F)c4)[nH]n3)ncnc2c1 [AZD2811] (first compound max 1 µM, 7x7, partner max 1 µM)    -0.143
CC1(C)CCC(CN2CCN(c3ccc(C(=O)NS(=O)(=O)c4ccc(NCC5CCOCC5)c([N+](=O)[O-])c4)c(Oc4cnc5[nH]ccc5c4)c3)CC2)=C(c2ccc(Cl)cc2)C1 [Venetoclax] + CCN(CCO)CCCOc1ccc2c(Nc3cc(CC(=O)Nc4cccc(F)c4)[nH]n3)ncnc2c1 [AZD2811] (first compound max 1 µM, 7x7, partner max 1 µM)    -0.0024
CC1(C)CCC(CN2CCN(c3ccc(C(=O)NS(=O)(=O)c4ccc(NCC5CCOCC5)c([N+](=O)[O-])c4)c(Oc4cnc5[nH]ccc5c4)c3)CC2)=C(c2ccc(Cl)cc2)C1 [Venetoclax] + Cn1cnc2c(F)c(Nc3ccc(Br)cc3Cl)c(C(=O)NOCCO)cc21 [Selumetinib] (first compound max 1 µM, 7x7, partner max 3 µM)    -0.0158

Answer for every listed entry: what is its Bliss excess? The entries follow.
1. COc1cccc(OCCCN)c1-c1cc(Nc2cnc(C#N)cn2)n[nH]1 [Prexasertib] + C[C@@H]1COCCN1C2=NC(=NC(=C2)C3(CC3)[S@](=N)(=O)C)C4=C5C=CNC5=NC=C4 [AZD6738] (first compound max 1 µM, 7x7, partner max 10 µM)
2. Cc1cc2ncnn2cc1Nc1ncc2c(n1)n(C1CCOCC1)c(=O)n2C [AZD7648] + C[C@@H]1COCCN1C2=NC(=NC(=C2)C3(CC3)[S@](=N)(=O)C)C4=C5C=CNC5=NC=C4 [AZD6738] (first compound max 10 µM, 7x7, partner max 10 µM)
3. CS(=O)(=O)CCNCc1ccc(-c2ccc3ncnc(Nc4ccc(OCc5cccc(F)c5)c(Cl)c4)c3c2)o1 [Lapatinib] + C[C@@H](Oc1cc(-c2cnn(C3CCNCC3)c2)cnc1N)c1c(Cl)ccc(F)c1Cl [Crizotinib] (first compound max 10 µM, 7x7, partner max 10 µM)

0.0436
0.0217
0.0208
